Target under test: Inositol 1,4,5-trisphosphate-gated calcium channel ITPR1 (Homo sapiens, UniProt Q14643)
Sequence (Q14643 whole entry, the tested form may be a part): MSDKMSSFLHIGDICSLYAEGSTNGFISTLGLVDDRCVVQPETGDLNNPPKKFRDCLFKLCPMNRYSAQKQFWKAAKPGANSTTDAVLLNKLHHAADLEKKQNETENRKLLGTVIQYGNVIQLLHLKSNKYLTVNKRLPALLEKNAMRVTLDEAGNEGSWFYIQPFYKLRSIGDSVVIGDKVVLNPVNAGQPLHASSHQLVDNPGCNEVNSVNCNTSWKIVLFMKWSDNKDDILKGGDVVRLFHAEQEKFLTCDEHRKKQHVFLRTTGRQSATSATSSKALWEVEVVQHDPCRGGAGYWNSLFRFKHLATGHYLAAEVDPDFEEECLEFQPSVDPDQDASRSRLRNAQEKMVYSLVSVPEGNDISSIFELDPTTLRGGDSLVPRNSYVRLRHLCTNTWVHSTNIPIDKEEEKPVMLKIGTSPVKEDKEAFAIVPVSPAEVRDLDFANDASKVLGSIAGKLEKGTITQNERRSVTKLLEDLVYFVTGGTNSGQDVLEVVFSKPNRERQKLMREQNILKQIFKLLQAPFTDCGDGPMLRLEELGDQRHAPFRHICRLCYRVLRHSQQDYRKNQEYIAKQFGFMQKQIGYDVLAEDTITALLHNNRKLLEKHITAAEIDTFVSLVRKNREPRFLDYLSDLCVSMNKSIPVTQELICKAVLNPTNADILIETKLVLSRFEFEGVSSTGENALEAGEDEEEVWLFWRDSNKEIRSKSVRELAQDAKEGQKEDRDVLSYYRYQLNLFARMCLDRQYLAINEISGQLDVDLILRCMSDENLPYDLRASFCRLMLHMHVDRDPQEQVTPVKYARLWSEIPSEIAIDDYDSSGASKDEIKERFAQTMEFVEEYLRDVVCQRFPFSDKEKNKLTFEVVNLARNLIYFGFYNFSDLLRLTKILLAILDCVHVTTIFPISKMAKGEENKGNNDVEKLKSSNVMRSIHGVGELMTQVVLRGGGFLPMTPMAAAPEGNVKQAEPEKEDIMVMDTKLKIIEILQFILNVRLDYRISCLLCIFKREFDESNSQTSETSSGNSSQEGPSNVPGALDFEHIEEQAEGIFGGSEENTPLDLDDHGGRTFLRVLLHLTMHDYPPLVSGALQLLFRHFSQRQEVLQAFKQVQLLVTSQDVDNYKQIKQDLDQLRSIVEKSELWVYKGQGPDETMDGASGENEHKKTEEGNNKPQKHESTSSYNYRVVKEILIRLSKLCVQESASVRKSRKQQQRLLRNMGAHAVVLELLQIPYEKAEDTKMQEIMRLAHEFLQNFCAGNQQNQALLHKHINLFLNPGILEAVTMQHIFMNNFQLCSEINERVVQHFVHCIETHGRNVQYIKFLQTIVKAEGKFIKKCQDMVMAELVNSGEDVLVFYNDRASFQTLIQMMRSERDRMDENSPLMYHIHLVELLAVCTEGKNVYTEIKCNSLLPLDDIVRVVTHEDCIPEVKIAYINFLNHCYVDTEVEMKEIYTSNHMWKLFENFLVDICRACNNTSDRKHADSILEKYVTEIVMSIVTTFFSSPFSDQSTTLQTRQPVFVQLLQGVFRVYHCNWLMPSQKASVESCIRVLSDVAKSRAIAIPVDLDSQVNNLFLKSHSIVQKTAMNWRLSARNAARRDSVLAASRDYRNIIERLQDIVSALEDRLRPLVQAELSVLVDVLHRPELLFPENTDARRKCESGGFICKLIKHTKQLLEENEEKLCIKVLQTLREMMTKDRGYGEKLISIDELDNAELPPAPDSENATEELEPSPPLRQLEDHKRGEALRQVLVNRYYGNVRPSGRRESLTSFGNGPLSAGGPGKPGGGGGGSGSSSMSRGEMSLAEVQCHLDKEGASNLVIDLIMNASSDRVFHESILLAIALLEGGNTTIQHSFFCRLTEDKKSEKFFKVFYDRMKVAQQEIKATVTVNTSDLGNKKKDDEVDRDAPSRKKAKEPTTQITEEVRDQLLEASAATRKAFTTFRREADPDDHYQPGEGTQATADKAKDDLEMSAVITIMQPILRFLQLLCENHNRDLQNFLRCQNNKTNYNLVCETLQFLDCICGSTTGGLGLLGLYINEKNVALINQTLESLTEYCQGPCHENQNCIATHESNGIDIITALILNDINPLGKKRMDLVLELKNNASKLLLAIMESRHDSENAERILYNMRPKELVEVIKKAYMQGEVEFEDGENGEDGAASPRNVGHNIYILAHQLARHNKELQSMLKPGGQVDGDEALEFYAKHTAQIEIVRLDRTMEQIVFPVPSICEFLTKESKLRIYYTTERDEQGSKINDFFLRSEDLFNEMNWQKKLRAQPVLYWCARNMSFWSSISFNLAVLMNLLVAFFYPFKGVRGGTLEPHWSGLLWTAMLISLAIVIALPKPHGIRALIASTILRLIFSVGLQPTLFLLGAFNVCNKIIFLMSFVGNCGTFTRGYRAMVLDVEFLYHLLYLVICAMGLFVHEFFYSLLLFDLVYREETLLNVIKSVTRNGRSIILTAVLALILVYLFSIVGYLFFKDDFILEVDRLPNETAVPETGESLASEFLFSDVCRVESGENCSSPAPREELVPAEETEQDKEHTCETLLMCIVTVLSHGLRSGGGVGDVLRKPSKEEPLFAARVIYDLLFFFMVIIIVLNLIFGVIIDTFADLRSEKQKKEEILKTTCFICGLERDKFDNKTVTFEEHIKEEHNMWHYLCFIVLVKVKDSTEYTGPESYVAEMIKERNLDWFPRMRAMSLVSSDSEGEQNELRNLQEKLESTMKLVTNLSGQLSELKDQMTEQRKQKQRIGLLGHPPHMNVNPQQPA
Protocol: Dissociation constant using IP3-binding domain (IBD) of human Type 1 inositol 1,4,5-trisphosphate receptor
Measurement name: pKd
Quick note: pKd values are minus log10 of concentrations in mol/L.

Q: Value lookup for pKd; key = CN(C)c1ccc2c(-c3ccc(C(=O)NCCCOP(=O)(O)O[C@@H]4[C@H](O)[C@H](O)[C@@H](OP(=O)(O)O)[C@H](OP(=O)(O)O)[C@H]4O)cc3C(=O)[O-])c3ccc(=[N+](C)C)cc-3oc2c1
Ans: 6.21

Q: Value lookup for pKd; key = NCCCOP(=O)(O)O[C@@H]1[C@H](O)[C@H](O)[C@@H](OP(=O)(O)O)[C@H](OP(=O)(O)O)[C@H]1O
Ans: 5.82
